// data source = ChEMBL document CHEMBL4477183

assay: Hemolytic activity in human type RBC after 1 hr; format: ADME, cell-based, Erythrocyte; settings: red blood cells (erythrocytes), read-out: LC50
quantity_measured: HC50 at 1 h

INSERT INTO results (substance, reading) VALUES
  ('H-GIMISLMKKLAAHIAK-NH2', '320 µM'),
  ('H-GILSSLWKKPKKIIAK-NH2', '> 400 µM'),
  ('H-GIMSSLMKKLKAHIAK-NH2', '> 400 µM'),
  ('H-GIMSSLMKKLAAHIKK-NH2', '> 400 µM'),
  ('H-GILSSLWKKLKKIIAK-NH2', '197 µM'),
  ('H-GIWSSLLKKLKKIIAK-NH2', '165 µM'),
  ('H-GIMSSLMKKLAKHIAK-NH2', '> 400 µM'),
  ('H-GILSKLLKKLKKIIAK-NH2', '> 400 µM'),
  ('H-KILSSLLKKLKKIIAK-NH2', '364 µM'),
  ('H-GILSSWLKKLKKIIAK-NH2', '> 400 µM'),
  ('H-GIMSSLMKKLAAIIAK-NH2', '93 µM'),
  ('H-GIMSSLMKKLAKIIKK-NH2', '> 400 µM'),
  ('H-GIMSSLMKKLKKIIAK-NH2', '> 400 µM'),
  ('H-GIMSSLMKKLAKIIAK-NH2', '88 µM'),
  ('H-GILSSLLKKWKKIIAK-NH2', '> 400 µM');
